TARGET_SYSTEM: Luciferin 4-monooxygenase (Photinus pyralis) (UniProt P08659)
Sequence (P08659 whole entry, looked up, canonical isoform): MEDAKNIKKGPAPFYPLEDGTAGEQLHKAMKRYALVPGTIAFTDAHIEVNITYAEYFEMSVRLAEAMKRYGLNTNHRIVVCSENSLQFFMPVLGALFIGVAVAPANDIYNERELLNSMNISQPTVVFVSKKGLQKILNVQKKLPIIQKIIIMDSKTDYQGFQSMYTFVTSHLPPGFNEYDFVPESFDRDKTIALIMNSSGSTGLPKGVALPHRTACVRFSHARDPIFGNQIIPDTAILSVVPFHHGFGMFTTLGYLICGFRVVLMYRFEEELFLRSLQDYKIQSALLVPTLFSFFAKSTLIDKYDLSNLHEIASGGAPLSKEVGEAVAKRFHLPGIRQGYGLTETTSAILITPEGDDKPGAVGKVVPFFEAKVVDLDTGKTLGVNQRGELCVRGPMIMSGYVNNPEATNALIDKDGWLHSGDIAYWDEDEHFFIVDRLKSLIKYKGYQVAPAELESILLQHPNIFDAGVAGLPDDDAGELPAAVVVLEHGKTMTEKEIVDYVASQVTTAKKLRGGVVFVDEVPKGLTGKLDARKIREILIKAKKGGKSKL
TEST_PROTOCOL: Counterscreen Assay for Enhancers of SMN2 Splice Variant Expression: Interaction with Luciferase Reporter
CONDITIONS: purified firefly luciferase, luminescence, 5 min; series mostly up to 40.3 µM
Records with an inconclusive call do not appear. Active and inactive are the calls of the source. Calls come from the whole dose curve; as a rule, active = well fitted inhibition curve with a large enough effect; inconclusive = small, poorly fitted or top-dose-only effect; inactive = flat fitted curve, though single readings scatter.
PARAMETER: activity change, negative = inhibition

These solved cases illustrate the format of a correct answer.
>  <COMPOUND>
NC(=O)C1(N2CCCCC2)CCN(c2nc(-c3ccc(Br)cc3)cs2)CC1

>  <activity change, negative = inhibition>
inactive

$$$$
>  <COMPOUND>
COCCCN1C(=O)C(=O)/C(=C(/O)c2ccc3c(c2)CC(C)O3)C1c1cccnc1 (configuration not stated)

>  <activity change, negative = inhibition>
4.07% [at 48.7 pM] (inactive)

$$$$
>  <COMPOUND>
O=C(NCCc1cn2ccsc2n1)c1cccs1

>  <activity change, negative = inhibition>
-9.66% [at 48.7 pM] (inactive)

$$$$
>  <COMPOUND>
CCOC(=O)c1c(-c2cccc(C)c2)csc1NC(=O)c1c(-c2ccccc2)noc1C

>  <activity change, negative = inhibition>
-9.91% [at 48.7 pM] (inactive)

$$$$
>  <COMPOUND>
CC1CN(c2nc(-c3ccc(Br)cc3)nnc2-c2ccccc2)CC(C)N1 (configuration not stated)

>  <activity change, negative = inhibition>
inactive

$$$$

# activity change, negative = inhibition (compound: O=C(NCc1cccs1)C(=O)NCC1OCCCN1S(=O)(=O)c1ccccc1 (configuration not stated) ) is 14.3% [at 48.7 pM] (inactive)

# activity change, negative = inhibition (compound: `c1ccc(-c2nnc(-c3ccccc3)c(-c3c[nH]c4ccccc34)n2)cc1` ) is inactive

# activity change, negative = inhibition (compound: `O=C(Cc1c(F)cccc1Cl)N1CCN(C(=O)c2ccco2)CC1` ) is -0.165% [at 48.7 pM] (inactive)

# activity change, negative = inhibition (compound: `Cc1[nH]c2ccccc2c1-c1nc(-c2ccc(Cl)cc2)nnc1-c1ccccc1` ) is inactive

# activity change, negative = inhibition (compound: `O=C(Nc1nc(-c2ccc3ccccc3c2)cs1)C1CCN(S(=O)(=O)c2cccs2)CC1` ) is inactive

# activity change, negative = inhibition (compound: O=C1CCC(C(=O)Nc2cccc3ccccc23)N1 (configuration not stated) ) is 7.8% [at 48.7 pM] (inactive)

# activity change, negative = inhibition (compound: O=c1[nH]c(=O)n(C2CCCO2)cc1Br (configuration not stated) ) is inactive

# activity change, negative = inhibition (compound: `CCOc1ccc2nc(N3CCC(C(=O)N4CCN(c5ccccn5)CC4)CC3)sc2c1` ) is inactive

# activity change, negative = inhibition (compound: `N#C/C(=C\Nc1ccccc1SC(F)(F)F)c1nc(-c2ccc(Cl)cc2)cs1` ) is 19.5% [at 48.7 pM] (inactive)

* * *

TARGET_SYSTEM: Luciferin 4-monooxygenase (Photinus pyralis) (UniProt P08659)
TEST_PROTOCOL: Counterscreen Assay for Enhancers of SMN2 Splice Variant Expression: Interaction with Luciferase Reporter
CONDITIONS: purified firefly luciferase, luminescence, 5 min; series mostly up to 40.3 µM
Results filed as inconclusive are left out. Calls of active or inactive are those of the source. Calls follow the shape of the dose curve; as a rule, active = well fitted inhibition curve with a large enough effect; inconclusive = small, poorly fitted or top-dose-only effect; inactive = flat fitted curve, though single readings scatter.
PARAMETER: Potency

These solved cases illustrate the format of a correct answer.
>  <COMPOUND>
Cc1ccc(C2c3c(oc4ccccc4c3=O)C(=O)N2CCCN2CCOCC2)o1 (stereo not drawn)

>  <Potency>
12.6 µM (active)

$$$$
>  <COMPOUND>
Cc1ccc(-c2csc(NC(=O)C3CCN(S(=O)(=O)c4cccs4)CC3)n2)cc1

>  <Potency>
8.91 µM (active)

$$$$

Proceeding to the next compound to report its Potency.
# Potency (compound: `O=C(O)c1cccc(COc2ccc(CO)cc2Cl)c1` ) is 7.08 µM (active)
